system name: mutEGFR (D770_N771insNPG, T790) (Homo sapiens, UniProt P00533, INS770NPG/T790M)
Construct: exact insNPG construct not described; in-house EGFR proteins were N-terminal GST fusions from baculovirus/insect cells (borders R669-A1210 given only for WT, insSVD, insASV)
Sequence (P00533 with tags, fused parts or gaps INS770NPG/T790M limits assumed): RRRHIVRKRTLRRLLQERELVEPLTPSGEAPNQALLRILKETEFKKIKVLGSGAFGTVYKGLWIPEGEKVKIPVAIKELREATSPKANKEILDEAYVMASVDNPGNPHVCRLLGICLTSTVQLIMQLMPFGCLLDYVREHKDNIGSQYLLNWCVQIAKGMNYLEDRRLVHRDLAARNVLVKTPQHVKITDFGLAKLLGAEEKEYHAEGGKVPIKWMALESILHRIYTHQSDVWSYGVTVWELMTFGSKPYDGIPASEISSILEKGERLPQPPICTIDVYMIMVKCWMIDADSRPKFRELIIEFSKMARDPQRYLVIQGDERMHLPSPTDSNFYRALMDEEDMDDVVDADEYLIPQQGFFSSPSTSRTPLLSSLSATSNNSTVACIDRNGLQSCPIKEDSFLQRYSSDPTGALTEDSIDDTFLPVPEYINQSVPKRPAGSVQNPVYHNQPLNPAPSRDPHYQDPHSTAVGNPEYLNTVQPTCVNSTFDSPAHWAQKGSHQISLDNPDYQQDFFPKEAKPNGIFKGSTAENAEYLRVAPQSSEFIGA
method notes: mutEGFR (D770_N771insNPG, T790) kinase assay
Assay type: biochemical
assay context: Table 2a, D770_N771insNPG
assay endpoint: pIC50
Convention used: pIC50 is expressed as -log10 of the molar concentration.

Some solved entries appear below for comparison.
Cc1c[nH]c2nccc(-c3c(-c4cccc5ccoc45)nn4c3CN(C(=O)/C=C/CN(C)C)CC4)c12    6.89
C=CC(=O)N1CCn2nc(-c3ccc4c(C)c[nH]c4c3)c(-c3ccncc3)c2C1    9.37
C=CC(=O)N1CCn2nc(-c3ccc(Cl)c(Cl)c3)c(-c3ccncc3)c2C1    9.83
CN(C)C/C=C/C(=O)N1CCn2nc(-c3ccc4occc4c3)c(-c3ccncc3)c2C1    8.69
NCC#CC(=O)N1CCn2nc(-c3ccc(F)cc3)c(-c3ccncc3)c2C1    7.28

C=CC(=O)N1CCn2nc(-c3cc4ccoc4cc3F)c(-c3ccncc3)c2C1 yielded pIC50 of 9.35

According to the records, this compound C=CC(=O)N1Cc2c(-c3ccncc3)c(-c3ccc(F)cc3)nn2C(CC(=O)N(C)C)C1 (centres unmarked) displays pIC50 of 7.63

The value of pIC50 measured for the compound C=CC(=O)N1Cc2c(-c3ccncc3)c(-c3ccc(C(F)(F)F)cc3F)nn2CC1C (racemic) turned out to be 8.98

Lab book: pIC50 of C=CC(=O)N1Cc2c(-c3ccncc3)c(-c3ccc(C(F)(F)F)cc3F)nn2C[C@@H]1C noted as 8.68

Per the records, this compound ( C=CC(=O)N1CCn2nc(-c3ccc(C)cc3O)c(-c3ccncc3)c2C1 ) has pIC50 equal to 8.41

# pIC50 (compound: CN(C)C/C=C/C(=O)N1CCn2nc(-c3ccc(Cl)cc3F)c(-c3ccncc3)c2C1 ) is 8.48

The compound C=CC(=O)N1Cc2c(-c3ccncc3)c(-c3ccc(OC)cc3)nn2C(C)C1 (single isomer, unassigned; isomer 1) [Example 274] showed pIC50 equal to 8.51

---

system name: mutEGFR (D770_N771insNPG, T790) (Homo sapiens, UniProt P00533, INS770NPG/T790M)
Construct: exact insNPG construct not described; in-house EGFR proteins were N-terminal GST fusions from baculovirus/insect cells (borders R669-A1210 given only for WT, insSVD, insASV)
method notes: mutEGFR (D770_N771insNPG, T790) kinase assay
Format: biochemical
assay context: Table 2a, D770_N771insNPG
assay endpoint: pIC50
Reminder that pIC50 is minus the log10 of a molar concentration.

C=CC(=O)N1Cc2c(-c3ccncc3)c(-c3ccc(OC)cc3F)nn2CC1C (racemic) [Example 231]    8.96

The reported pIC50 of the compound C=CC(=O)N1CCn2nc(-c3cccc(C#N)c3)c(-c3ccnc4[nH]cc(C)c34)c2C1 [Example 45] was 6.80

Notebook: C=CC(=O)N1CCn2nc(-c3ccc(Cl)cc3OC)c(-c3ccncc3)c2C1 [Example 116] , pIC50 read as 7.94

Lab book: pIC50 of CC(C)N(C)C/C=C/C(=O)N1CCn2nc(-c3ccc(Cl)cc3)c(-c3ccncc3)c2C1 [Example 166] noted as 9.47

---

system name: mutEGFR (D770_N771insNPG, T790) (Homo sapiens, UniProt P00533, INS770NPG/T790M)
Construct: exact insNPG construct not described; in-house EGFR proteins were N-terminal GST fusions from baculovirus/insect cells (borders R669-A1210 given only for WT, insSVD, insASV)
method notes: mutEGFR (D770_N771insNPG, T790) kinase assay
Type: biochemical
assay context: Table 2a, D770_N771insNPG
assay endpoint: pIC50
Scale note: pIC50 = -log10(concentration in M).

C=CC(=O)N1CCn2nc(-c3ccc(F)cc3)c(-c3ccncc3)c2C1    9.02
CC1CN(C(=O)/C=C/CN(C)C)Cc2c(-c3ccncc3)c(-c3ccc(Cl)cc3F)nn21 (single isomer, unassigned; isomer 1)    9.38
CC(C)(C)NC/C=C/C(=O)N1CCn2nc(-c3ccc(Cl)cc3)c(-c3ccncc3)c2C1    8.99
C=CC(=O)N1Cc2c(-c3ccnc4[nH]cc(C)c34)c(-c3ccc(C(F)(F)F)cc3)nn2C[C@@H]1C    6.22
C=CC(=O)N1CCn2nc(-c3ccc(SC(F)(F)F)cc3)c(-c3ccncc3)c2C1    7.14

pIC50 measured on C=CC(=O)N1Cc2c(-c3ccncc3)c(-c3ccc(Cl)c(C)c3)nn2CC1(C)C = 8.00

The reported value for C=CC(=O)N1CCn2nc(-c3ccc(C(F)(F)F)cc3)c(-c3ccncc3C3CC3)c2C1 in terms of pIC50 is 5.60

molecule C=CC(=O)N1CCn2nc(-c3ccc(C(F)(F)F)cc3)c(-c3ccncc3)c2C1 , pIC50 observed: 8.55

---

Recorded measurements of pIC50, one per entry
system name: mutEGFR (D770_N771insSVD) (Homo sapiens, UniProt P00533, DUP768-770)
Construct: GST-EGFR #3 (SVD between D770 and N771); made in house; host or cells: Sf9 insect cells (baculovirus)
Sequence (P00533 with tags, fused parts or gaps DUP768-770): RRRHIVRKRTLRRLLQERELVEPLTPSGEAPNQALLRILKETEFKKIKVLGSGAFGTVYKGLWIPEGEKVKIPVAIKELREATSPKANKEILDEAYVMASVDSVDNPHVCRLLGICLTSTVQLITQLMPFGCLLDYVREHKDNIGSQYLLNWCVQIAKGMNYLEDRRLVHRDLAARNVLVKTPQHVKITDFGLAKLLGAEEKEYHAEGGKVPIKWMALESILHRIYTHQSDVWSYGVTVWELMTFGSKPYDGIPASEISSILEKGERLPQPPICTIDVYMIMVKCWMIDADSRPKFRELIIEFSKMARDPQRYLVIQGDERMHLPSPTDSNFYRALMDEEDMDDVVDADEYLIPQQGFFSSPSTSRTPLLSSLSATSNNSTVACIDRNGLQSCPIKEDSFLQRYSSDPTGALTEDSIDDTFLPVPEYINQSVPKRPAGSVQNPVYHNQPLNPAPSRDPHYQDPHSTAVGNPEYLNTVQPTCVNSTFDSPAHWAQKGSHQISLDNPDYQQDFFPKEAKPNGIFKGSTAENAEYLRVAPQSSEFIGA
method notes: Exon20-Mutant-EGFR (D770_N771insSVD) kinase assay (TR-FRET)
Type: biochemical
assay context: mutEGFR (D770_N771insSVD) kinase assay IC50, Table 2a; D770_N771insSVD; 2 mM ATP
Quick note: pIC50 means taking -log10 of the concentration in moles per liter.

C=CC(=O)N1Cc2c(-c3ccncc3)c(-c3ccc(Cl)cc3)nn2C(C)C1 (racemic)    9.77
CN(C)C/C=C/C(=O)N1CCn2nc(-c3ccc4occc4c3)c(-c3ccncc3)c2C1    9.17
C=CC(=O)N1Cc2c(-c3ccncc3)c(-c3ccc(Cl)cc3)nn2CC1(C)C    7.90

pIC50 recorded for this compound, Cc1ccc(-c2nn3c(c2-c2ccncc2)CN(C(=O)/C=C/CN(C)C)CC3)cc1 , is 8.84

Recorded result, C=CC(=O)N1CCn2nc(-c3ccc(C(F)(F)F)cc3)c(-c3ccnc4[nH]ccc34)c2C1C (single isomer, unassigned; isomer 1) [Example 258] , pIC50: 7.00

The compound listed as CN(C)C/C=C/C(=O)N1CCn2nc(-c3ccccc3Cl)c(-c3ccncc3)c2C1 has a reported pIC50 of 8.46

Form: compound = C=CC(=O)N1CCn2nc(-c3ccc4cc(F)sc4c3)c(-c3ccnc4[nH]cc(C)c34)c2C1 ; pIC50 = 7.22

The reported value for C=CC(=O)N1CCn2nc(-c3ccc(Cl)cc3F)c(-c3ccncc3)c2C1 in terms of pIC50 is 9.59

---

IC50 values for the compounds below.
system name: mutEGFR (D770_N771insNPG, T790) (Homo sapiens, UniProt P00533, INS770NPG/T790M)
Construct: exact insNPG construct not described; in-house EGFR proteins were N-terminal GST fusions from baculovirus/insect cells (borders R669-A1210 given only for WT, insSVD, insASV)
method notes: mutEGFR (D770_N771insNPG, T790) kinase assay
Type: biochemical
assay context: Table 2b (from US Priority Patent Application), mutEGFR D770_N771insNPG
Description: The different EGFR proteins used in the biochemical kinase activity inhibition assays were generated inhouse by expression in insect cells using Baculo Virus system and subsequent purification as described in the following paragraphs. The cDNAs encoding the various protein sequences from human EGFR human (P00533) were optimized for expression in eukaryotic cells and synthesized by the GeneArt Technology at Life Technologies.
Please state the figure in nM; there is no need to write the unit.

# count of solved cases: 6
C=CC(=O)N1CCn2nc(-c3ccc(F)cc3)c(-c3ccnc(NC(=O)C4CC4)c3)c2C1 [Example 7]    0.408
C=C(F)C(=O)N1CCn2nc(-c3ccc(F)cc3)c(-c3ccncc3)c2C1 [Example 17]    85.8
CC(C)N(C)C/C=C/C(=O)N1CCn2nc(-c3ccc(F)cc3)c(-c3ccncc3)c2C1 [Example 18]    1.76
CN(C)C/C=C/C(=O)N1CCn2nc(-c3ccc(F)cc3)c(-c3ccncc3)c2C1 [Example 15]    1.08
C=CS(=O)(=O)N1CCn2nc(-c3ccc(F)cc3)c(-c3ccncc3)c2C1 [Example 14]    0.867
C=CC(=O)N1CCn2nc(-c3ccc(F)cc3)c(-c3ccnc(N)c3)c2C1 [Example 10]    2.26

// IC50 value for CC#CC(=O)N1CCn2nc(-c3ccc(F)cc3)c(-c3ccncc3)c2C1 [Example 16] : 76.6

The compound listed as C=CC(=O)N1CCn2nc(-c3cccc(OC)c3)c(-c3ccncc3)c2C1 [Example 5] shows IC50 equal to 1.04

Recorded IC50 (compound C=CC(=O)N1CCn2nc(-c3ccc(Cl)cc3)c(-c3ccncc3)c2C1 [Example 3] ): 0.324

Form field IC50, entry C=CC(=O)N1CCn2nc(-c3ccc(F)cc3)c(-c3ccnc(OC)c3)c2C1 [Example 11] : 43.8

Data provenance is patent US20260365653A1.
